# System: CEM cells HIV-1 protection, formazan growth assay
# METHOD_DESCRIPTION: NCI AIDS Antiviral Assay;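 active = compounds giving half or more protection of infected cells from virus-caused growth loss, again on retest; inactive = the rest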
Give one outcome, nothing more. List: 1.0 for active, 0.0 for inactive

O=C1CC2C1C1C=CC2n2c(=O)n(-c3ccccc3)c(=O)n21 (stereo not given) | 0.0
CC(C)=[CH][Sb]([Br])([CH]=C(C)C)([CH]=C(C)C)[c]1ccccc1 | 0.0
CN=C(NCCCN1CCOCC1)c1ccc(NC(=O)c2ccc(C(=O)Nc3ccc(C(=NC)NCCCN4CCOCC4)cc3)cc2)cc1 | 0.0
NC(=S)N/C=C(/c1ccc(Cl)cc1Cl)S(=O)(=O)Cc1ccc(Cl)cc1Cl | 0.0
C=CCSS/C=C/CS(=O)CC=C (stereo not given) | 0.0

-- ask For `CN(C)Cc1cc(CN(C)C)cc(CN(C)C)c1` , which call appears in the assay record?
-- reply 0.0

-- ask For CCN(CC)CCN1C(=O)C2C3C=CC(C2C1=O)C1C2C(=O)N(CCN(CC)CC)C(=O)C2C31 (stereo not given) , which call appears in the assay record?
-- reply 0.0

-- ask For `CCc1cccc(C(C)C)c1N1C(=O)C(=O)C(c2nc3ccccc3s2)C(=O)C1=O` , which call appears in the assay record?
-- reply 0.0

-- ask For Cc1nn(C(=O)Cc2ccccc2)c2c1C(c1ccc(Cl)cc1)SC(N)=N2 (stereo not given) , which call appears in the assay record?
-- reply 1.0

-- ask For `O=C(Nc1ccccc1)O/N=C1/CCCC/C1=C\c1ccccc1` , which call appears in the assay record?
-- reply 0.0

---

# System: CEM cells HIV-1 protection, formazan growth assay
# METHOD_DESCRIPTION: NCI AIDS Antiviral Assay
# TEST_CONTEXT: measured here: growth of uninfected CEM cells
pIC50: −log10 of the molar value.
If the reported pIC50 equals or exceeds 4, assign label 1. If not, assign label 0.

Recorded results for 6 molecules are shown here.
CC(=O)NS(=O)(=O)c1ccc(NC(=O)COC(=O)c2cccc3c(=O)c4ccccc4[nH]c23)cc1 | label 0
O=C(O)C1Cc2[nH]c3ccccc3c2C2CCCC12 (configuration not stated) | label 0
CCCCCCOc1ccc(C(=O)N(C)O)cc1 | label 1
Cc1cc2nc3n(c2cc1C)C(c1c(F)cccc1F)SC3 (configuration not stated) | label 1
O=C(Cc1ccccc1)NN1C(=O)C(Cl)C1c1ccc(Cl)cc1 (configuration not stated) | label 0
COc1ccc(C(CC(=O)C(C)(C)CN2CCCCC2)SCCS(=O)(=O)O)cc1 (configuration not stated) | label 1

-- ask Decide: is the reported value of pIC50 for O=C(c1ccccc1)c1ccc2cccc(OC3OC(CO)C(O)C(O)C3O)c2n1 (configuration not stated) equal to or greater than 4?
-- reply label 0

-- ask Decide: is the reported value of pIC50 for COC(OC)c1c2c(O)c3c(O)c(C)c4c(c3c1O)C(=O)C(C)(O/C=C/C(OC)C(C)C(OC(C)=O)C(C)C(O)C(C)C(O)C(C)/C=C/C=C(/C)C(=O)N2)O4 (configuration not stated) equal to or greater than 4?
-- reply label 1

-- ask Decide: is the reported value of pIC50 for `CSc1nc(C)c(CCOC(C)=O)c(N=P(c2ccccc2)(c2ccccc2)c2ccccc2)n1` equal to or greater than 4?
-- reply label 1
